In this section we review reported MRC5 IC50 values for a set of binders.
biological target: Recombinant human IL-1β (BioLegend 579404) (human, UniProt P01584 117-269); test: cell-based or functional assay
Non-standard residues stand in square brackets, D forms with d. dPro(4R-(4-pyridylmethyl)) = O=C(O)[C@H]1C[C@@H](Cc2ccncc2)CN1; Trp(βS-Me,4-F) = C[C@@H](c1c[nH]c2cccc(F)c12)[C@H](N)C(=O)O; Bip(4'-COOH) = N[C@@H](Cc1ccc(-c2ccc(C(=O)O)cc2)cc1)C(=O)O; dPro(4R-Bzl(4-F)) = O=C(O)[C@H]1C[C@@H](Cc2ccc(F)cc2)CN1; Ala(pyrimidin-5-yl) = N[C@@H](Cc1cncnc1)C(=O)O; Phe(4-COOH) = N[C@@H](Cc1ccc(C(=O)O)cc1)C(=O)O; Pro(cis-4-F) = O=C(O)[C@@H]1C[C@H](F)CN1; Ala(4-THP) = N[C@@H](CC1CCOCC1)C(=O)O; Dap(CONH2) = NC(=O)NC[C@H](N)C(=O)O; d(αMeD) = C[C@@](N)(CC(=O)O)C(=O)O; 4Pal = N[C@@H](Cc1ccncc1)C(=O)O; Dab = NCC[C@H](N)C(=O)O; Aib = CC(C)(N)C(=O)O

binder	MRC5 IC50
cyclo([Bip(4'-COOH)][4Pal][Phe(4-COOH)]G[Pro(cis-4-F)][Trp(βS-Me,4-F)][Aib]EW[Aib]HQ[Dab]G[dPro(4R-Bzl(4-F))]) (ring closure inferred) [SEQ ID NO 276]	0.017 nM
cyclo([Bip(4'-COOH)][4Pal][Phe(4-COOH)]G[Pro(cis-4-F)][Trp(βS-Me,4-F)][Aib]SW[d(αMeD)][Ala(4-THP)]Q[Dab]G[dPro(4R-Bzl(4-F))]) (ring closure inferred; not fully specified (N-terminus); printed as cyclic, Bip4CO2H-4Pal-Phe4COOH-G-Proc4F-SbMeW4F-Aib-S-W-daMeD-AlaTHP4-Q-Dab-G-dProc4Bn4F) [SEQ ID NO 313]	0.015 nM
cyclo([Bip(4'-COOH)][4Pal][Phe(4-COOH)]G[Pro(cis-4-F)][Trp(βS-Me,4-F)][Aib]SW[Aib][Ala(pyrimidin-5-yl)]Q[Dap(CONH2)]G[dPro(4R-(4-pyridylmethyl))]) (ring closure inferred) [SEQ ID NO 270]	0.023 nM
